Known pKd of a selection of binders
Biological target: T1, rat SNAP-tagged mGlu2 receptor (wild-type rat mGlu2 subunit with an HA-tag and a SNAP inserted just after the … (rat, UniProt P31421 19-872, SNAP tag labelled with SNAP-Lumi4-Tb in the TR-FRET binding assay))
T1 construct: whole, on cells; Transiently transfected HEK293 cells; also called SNAP-mGlu2; mGluR2; not shown: HA-tag inserted just after the signal peptide; SNAP tag inserted just after the signal peptide
T1 sequence (P31421 19-872): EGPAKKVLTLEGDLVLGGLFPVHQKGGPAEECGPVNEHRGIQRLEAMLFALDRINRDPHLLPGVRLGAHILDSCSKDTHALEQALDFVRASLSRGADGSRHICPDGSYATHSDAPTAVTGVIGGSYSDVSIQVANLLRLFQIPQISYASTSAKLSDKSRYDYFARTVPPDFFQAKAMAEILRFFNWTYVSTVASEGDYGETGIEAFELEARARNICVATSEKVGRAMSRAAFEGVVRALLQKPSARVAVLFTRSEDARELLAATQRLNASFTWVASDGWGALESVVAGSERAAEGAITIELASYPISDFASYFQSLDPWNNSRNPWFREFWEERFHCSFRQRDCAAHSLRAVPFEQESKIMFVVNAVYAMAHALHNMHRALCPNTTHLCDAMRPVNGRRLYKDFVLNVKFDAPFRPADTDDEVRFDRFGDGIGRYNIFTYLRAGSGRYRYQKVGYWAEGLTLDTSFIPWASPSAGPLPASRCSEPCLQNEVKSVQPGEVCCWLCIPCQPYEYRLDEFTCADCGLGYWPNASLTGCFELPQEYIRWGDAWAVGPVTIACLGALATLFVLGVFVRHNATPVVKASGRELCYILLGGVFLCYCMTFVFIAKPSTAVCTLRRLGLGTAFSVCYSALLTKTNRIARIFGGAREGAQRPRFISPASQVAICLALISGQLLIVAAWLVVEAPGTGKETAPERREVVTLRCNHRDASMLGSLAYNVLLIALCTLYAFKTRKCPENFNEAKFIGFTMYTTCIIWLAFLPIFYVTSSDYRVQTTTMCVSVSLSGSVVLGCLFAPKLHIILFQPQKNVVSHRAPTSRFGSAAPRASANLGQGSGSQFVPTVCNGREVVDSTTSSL
Test: TR-FRET saturation binding on HEK293 cells with Lumi4-Tb-labelled rat SNAP-mGlu2, anti-6His-d2; inactive conformation (1 uM LY341495)

- binder: "IGF-1202 (IGF-1168 HcAb IGF-1159), biparatopic IGF1202-tag6xHIS (VHH) QVQLVQSGGGLVQAGGSLRLSCAASVRFFSINTMGWYRQAPGKQRELVADITSSGSTNYADSGKGRFTISRDNAKNTVYLQMNRLKPEDTAVYYCHADYKYTTHNTAWGQGTQVTVSSEPKIPQPQPKPQPQPQPQPQPKPQPKPEPQVQLVQSGGGLVQAGGSLRLSCAASGRTFSSFAMAWFRQAPGKEREFVAAISWSGSTGHADSVKGRFTITRDNAKNTVFLQMNSLKPEDTAVYYCALGKGSSYYYSPSGYDYWGQGTQVTVSSLEHHHHHH"
  pKd: "8.87 -log10 M"
- binder: "IGF-1251 (IGF-1159 GS IGF-1168) (VHH, Bivalent biparatopic nanobody, two VHH in tandem) QVQLVQSGGGLVQAGGSLRLSCAASGRTFSSFAMAWFRQAPGKEREFVAAISWSGSTGHADSVKGRFTITRDNAKNTVFLQMNSLKPEDTAVYYCALGKGSSYYYSPSGYDYWGQGTQVTVSSGGGGSGGGGSGGGGSQVQLVQSGGGLVQAGGSLRLSCAASVRFFSINTMGWYRQAPGKQRELVADITSSGSTNYADSGKGRFTISRDNAKNTVYLQMNRLKPEDTAVYYCHADYKYTTHNTAWGQGTQVTVSSLEHHHHHH"
  pKd: "8.54 -log10 M"
- binder: "IGF-1252 (IGF-1159 HcAb IGF-1168) (VHH, Bivalent biparatopic nanobody, two VHH in tandem) QVQLVQSGGGLVQAGGSLRLSCAASGRTFSSFAMAWFRQAPGKEREFVAAISWSGSTGHADSVKGRFTITRDNAKNTVFLQMNSLKPEDTAVYYCALGKGSSYYYSPSGYDYWGQGTQVTVSSEPKIPQPQPKPQPQPQPQPQPKPQPKPEPQVQLVQSGGGLVQAGGSLRLSCAASVRFFSINTMGWYRQAPGKQRELVADITSSGSTNYADSGKGRFTISRDNAKNTVYLQMNRLKPEDTAVYYCHADYKYTTHNTAWGQGTQVTVSSLEHHHHHH"
  pKd: "8.49 -log10 M"

Moving on to another binder below.
For IGF-1201 (IGF-1168 GS IGF-1159) (VHH, Bivalent biparatopic nanobody, two VHH in tandem) QVQLVQSGGGLVQAGGSLRLSCAASVRFFSINTMGWYRQAPGKQRELVADITSSGSTNYADSGKGRFTISRDNAKNTVYLQMNRLKPEDTAVYYCHADYKYTTHNTAWGQGTQVTVSSGGGGSGGGGSGGGGSQVQLVQSGGGLVQAGGSLRLSCAASGRTFSSFAMAWFRQAPGKEREFVAAISWSGSTGHADSVKGRFTITRDNAKNTVFLQMNSLKPEDTAVYYCALGKGSSYYYSPSGYDYWGQGTQVTVSSLEHHHHHH the binder record lists pKd as 8.95 -log10 M
